// reported EC50 of receptor-mediated cAMP synthesis, GLP1R (nM), average per item
Molecular target: human GLP-1 receptor (human, UniProt P43220 24-463)
Test: cell-based or functional assay
Bridge positions count the residues as written; N and C are the ends. Square brackets hold non-standard residues; d marks the D form. Ends that are not written are not given here. C20L5A = not defined here; Aib = CC(C)(N)C(=O)O
A complete answer gives the number followed by the unit.

* Y[Aib]EGTYTNDYSIYLDKCAA[Aib]EFVCWLIAGGPSSGAPPPS-NH2 (linker 17-24 via C20L5A; not fully specified; reading uncertain) [6Y, 8N, 27I, C(17-24)-C20L5A] | 0.08 nM
* Y[Aib]EGTFTSDYSIYCDKQAA[Aib]CFVNWLIAGGPSSGAPPPS-NH2 (linker 14-21 via C20L5A; not fully specified; reading uncertain) [mCMV266 (27I, C(14-21)-C20L5A)] | 0.05 nM
* Y[Aib]EGTFTSDYSIYKDKQAA[Aib]KFVNWLLAGGPSSGAPPPS-NH2 (bridge 14-21; not fully specified (bridges); also: K4 staple carries PEG-fatty acid) [mCMD307 (2050-K4)] | 0.01 nM
* Y[Aib]EGTYTSDYSIYCDKQAA[Aib]CFVNWLIAGGPSSGAPPPS-NH2 (linker 14-21 via C20L5A; not fully specified; reading uncertain) [6Y, 27I, C(14-21)-C20L5A] | 0.06 nM

Now for the binder whose EC50 of receptor-mediated cAMP synthesis, GLP1R (nM), average we want.
Ask: Item Y[Aib]EGTYTSDYSIYLDKCAA[Aib]EFVCWLIAGGPSSGAPPPS-NH2 (linker 17-24 via C20L5A; not fully specified; reading uncertain) [6Y, 27I, C(17-24)-C20L5A] has what recorded EC50 of receptor-mediated cAMP synthesis, GLP1R (nM), average?
Result: 0.06 nM
